Measured PBM E-score, listed per entry for reference.
# study target: Zap1 (UniProt P47043)
# Sequence: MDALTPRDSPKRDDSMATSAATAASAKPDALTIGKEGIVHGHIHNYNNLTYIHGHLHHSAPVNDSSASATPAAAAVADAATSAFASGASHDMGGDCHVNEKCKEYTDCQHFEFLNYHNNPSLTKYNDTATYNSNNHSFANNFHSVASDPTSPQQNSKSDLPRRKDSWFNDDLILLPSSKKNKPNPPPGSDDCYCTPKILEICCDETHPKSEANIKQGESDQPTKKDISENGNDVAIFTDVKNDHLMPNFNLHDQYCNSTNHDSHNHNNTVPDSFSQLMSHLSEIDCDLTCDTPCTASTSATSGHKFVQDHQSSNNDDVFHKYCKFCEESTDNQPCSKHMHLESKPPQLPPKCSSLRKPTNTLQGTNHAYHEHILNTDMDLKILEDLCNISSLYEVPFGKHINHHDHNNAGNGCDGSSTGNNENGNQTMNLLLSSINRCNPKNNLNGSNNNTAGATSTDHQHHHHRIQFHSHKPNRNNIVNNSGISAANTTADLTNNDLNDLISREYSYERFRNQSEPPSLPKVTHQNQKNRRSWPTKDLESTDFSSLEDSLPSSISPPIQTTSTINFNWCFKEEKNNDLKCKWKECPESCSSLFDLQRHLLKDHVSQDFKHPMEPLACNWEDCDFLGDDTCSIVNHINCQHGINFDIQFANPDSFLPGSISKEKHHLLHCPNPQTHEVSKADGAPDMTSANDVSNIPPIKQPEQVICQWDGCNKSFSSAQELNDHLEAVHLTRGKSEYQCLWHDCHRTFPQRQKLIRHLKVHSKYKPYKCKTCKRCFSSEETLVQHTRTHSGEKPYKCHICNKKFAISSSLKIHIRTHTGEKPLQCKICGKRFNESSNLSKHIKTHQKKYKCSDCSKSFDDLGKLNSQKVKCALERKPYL
# measurement description: PBM E-score (8-mer binding enrichment) (E-score (-0.5 to 0.5)); higher = stronger / more preferred TF binding
# experimental parameters: protein concentration: 200 nM; construct: GST-full length
Whole data set: some 33,000 sequences, median “E-score (-0.5 to 0.5)” near -0.021, cut for the highest 2% near 0.32. Many of the other results were omitted from the sample, so the highest values are more common in it than they were.
attribute measured: PBM E-score

[[record]]
chain_sequence = "GGATACCC"
test_value = 0.393

[[record]]
chain_sequence = "AGCAGTAT"
test_value = 0.0154

[[record]]
chain_sequence = "AAATACCC"
test_value = 0.328

[[record]]
chain_sequence = "GCCAACAA"
test_value = 0.192

[[record]]
chain_sequence = "CCTCAATC"
test_value = 0.158

[[record]]
chain_sequence = "ACTGGCTA"
test_value = -0.0583

[[record]]
chain_sequence = "CAATACCC"
test_value = 0.214

[[record]]
chain_sequence = "CCGGTACA"
test_value = 0.149

[[record]]
chain_sequence = "GCCAGGGC"
test_value = -0.128

[[record]]
chain_sequence = "ATTACCTG"
test_value = 0.149

[[record]]
chain_sequence = "ATTACCTA"
test_value = 0.216

[[record]]
chain_sequence = "AGATACCA"
test_value = 0.137

[[record]]
chain_sequence = "CCTACCTC"
test_value = 0.125

[[record]]
chain_sequence = "CAGTACTG"
test_value = -0.118

[[record]]
chain_sequence = "ATTACCTC"
test_value = 0.32

[[record]]
chain_sequence = "ACTACCTC"
test_value = 0.356

[[record]]
chain_sequence = "AGATACCC"
test_value = 0.325

[[record]]
chain_sequence = "AGTACTTC"
test_value = 0.148

[[record]]
chain_sequence = "ATTGGGAG"
test_value = -0.0694

[[record]]
chain_sequence = "AAAGTAGT"
test_value = 0.0501

[[record]]
chain_sequence = "AATGGGCG"
test_value = -0.204

[[record]]
chain_sequence = "ACTCACCC"
test_value = -0.0932

